# ASSAY PROCEDURE: HepG2 cell viability effects, profiling panel, calcein-AM fluorescence, 48 h, basal (AID 1164); also: test concentration not given here
# EXPERIMENTAL PARAMETERS: higher = more signal
PARAMETER: z-score

Known z-score results, listed for orientation:
COMPOUND	z-score
Cc1ccc(S(=O)(=O)NC(CCc2ccccc2)CC(=O)C(C)(C)C)cc1 (centres undefined)	-0.869
COc1ccc(O[C@H]2C=C[C@@H](c3ccccc3)O[C@@H]2COC(=O)CCC(C)=NO[C@@H]2O[C@H](COC(C)=O)[C@@H](OC(C)=O)[C@H](OC(C)=O)[C@H]2OC(C)=O)cc1	-0.574
COC(=O)CC=C[C@@H](C)[C@@H](C=NO[C@@H](C)c1cn([C@H](CO)Cc2ccccc2)nn1)NS(=O)(=O)c1ccc(C)cc1	1.35

Record z-score for all entries; do not skip any.
1. COC(=O)C=CCCc1coc(C=CCNC(=O)OC)n1
2. COc1ccc(O[C@H]2C=C[C@@H](c3ccccc3)O[C@@H]2COC(=O)CCC(C)=NOC[C@@H](O)[C@H]2O[C@@H]3OC(C)(C)O[C@@H]3[C@H]2O)cc1

A.
[-0.586, 0.26]
